# Study System: full-length MALT1 protein His-MALT1(1-824) (Homo sapiens, UniProt Q9UDY8)
# Construct: full-length MALT1 protein His-MALT1(1-824); His (N); made in house; host or cells: baculovirus-infected insect cells
# Sequence (Q9UDY8 whole entry): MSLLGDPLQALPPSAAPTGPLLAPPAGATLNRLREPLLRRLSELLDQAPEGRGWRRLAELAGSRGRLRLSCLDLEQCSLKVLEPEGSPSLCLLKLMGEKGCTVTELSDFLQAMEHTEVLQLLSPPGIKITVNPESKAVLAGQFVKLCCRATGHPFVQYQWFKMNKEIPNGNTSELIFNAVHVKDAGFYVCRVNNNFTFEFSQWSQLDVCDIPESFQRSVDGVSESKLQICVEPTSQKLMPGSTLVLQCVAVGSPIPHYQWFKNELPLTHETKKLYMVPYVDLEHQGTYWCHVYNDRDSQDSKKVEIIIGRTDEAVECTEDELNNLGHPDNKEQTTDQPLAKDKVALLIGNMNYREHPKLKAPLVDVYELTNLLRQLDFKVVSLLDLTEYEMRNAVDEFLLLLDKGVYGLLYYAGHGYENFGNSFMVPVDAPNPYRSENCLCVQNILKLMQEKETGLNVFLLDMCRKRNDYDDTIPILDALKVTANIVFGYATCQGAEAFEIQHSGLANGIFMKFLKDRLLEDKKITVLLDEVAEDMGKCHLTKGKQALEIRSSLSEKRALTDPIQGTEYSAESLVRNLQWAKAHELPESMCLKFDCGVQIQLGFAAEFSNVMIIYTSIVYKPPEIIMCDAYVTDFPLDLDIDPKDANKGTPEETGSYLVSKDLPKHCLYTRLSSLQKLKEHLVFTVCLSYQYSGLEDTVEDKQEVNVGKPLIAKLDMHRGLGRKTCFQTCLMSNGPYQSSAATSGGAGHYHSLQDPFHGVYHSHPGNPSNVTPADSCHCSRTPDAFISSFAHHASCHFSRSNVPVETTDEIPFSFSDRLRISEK
# Protocol Text: MALT1 protease assay, Assay 2 (1 nM MALT1, Ac-LRSR-AMC substrate)
# Assay type: biochemical
# Experimental Context: 1 nM MALT1, 50 μM Ac-LRSR-AMC, 2 h pre-incubation, 8 hr incubation at RT
So I've got a bunch of compounds here, and I need their IC50 values.

### Prompt Endpoint output: IC50 of Cc1cc(NC(=O)[C@H]2CC(C)(C)c3c2cnc2cc(F)nn32)cnc1-n1nccn1 (single isomer, unassigned) . Value?
### Response 10 to 100 nM

### Prompt Endpoint output: IC50 of O=C(Nc1cnc(-n2nccn2)c(Cl)c1)[C@H]1CC2(CCC2)c2c1cnc1cc(F)nn21 (single isomer, unassigned) . Value?
### Response < 10 nM

### Prompt Endpoint output: IC50 of CC1(C)O[C@H](C(=O)Nc2cnc(-n3nccn3)c(Cl)c2)c2cnc3cc(Cl)nn3c21 (single isomer, unassigned) . Value?
### Response 100 to 1000 nM

### Prompt Endpoint output: IC50 of CC1(C)C[C@H](C(=O)Nc2cnc(-n3nccn3)c(C(F)(F)F)c2)c2cnc3cc(Cl)nn3c21 (single isomer, unassigned) . Value?
### Response < 10 nM

### Prompt Endpoint output: IC50 of Cc1cc(NC(=O)C2CC(C)(C)c3c2cnc2cc(F)nn32)cnc1-c1ccn(C)n1 (stereo not shown) . Value?
### Response 100 to 1000 nM

### Prompt Endpoint output: IC50 of CC1(C)CC(C(=O)Nc2cnc(OC(F)F)c(C#N)n2)c2cnc3cc(F)nn3c21 (single isomer, unassigned) [Example 86] . Value?
### Response ≥ 1000 nM

### Prompt Endpoint output: IC50 of N#Cc1cc(NC(=O)C2CC3(CCC3)c3c2cnc2cc(F)nn32)cnc1OC(F)F (single isomer, unassigned) . Value?
### Response < 10 nM

### Prompt Endpoint output: IC50 of CC1(C)CC(C(=O)Nc2cnc(N=S(C)(C)=O)c(Cl)c2)c2cnc3cc(F)nn3c21 (single isomer, unassigned) [Example 132] . Value?
### Response 10 to 100 nM

### Prompt Endpoint output: IC50 of CC1(C)C[C@H](C(=O)Nc2cnc(C(=O)NC3CC3)c(C(F)F)c2)c2cnc3cc(Cl)nn3c21 (single isomer, unassigned) . Value?
### Response 10 to 100 nM

### Prompt Endpoint output: IC50 of C[C@@]1(C(F)(F)F)C[C@@H](C(=O)Nc2cnc(-n3nccn3)c(Cl)c2)c2cnc3cc(F)nn3c21 (single isomer, unassigned) [Example 185] . Value?
### Response < 10 nM

### Prompt Endpoint output: IC50 of C[C@]1(C(F)(F)F)C[C@@H](C(=O)Nc2cnc(-n3nccn3)c(C(F)(F)F)c2)c2cnc3cc(Cl)nn3c21 (single isomer, unassigned) . Value?
### Response 10 to 100 nM

### Prompt Endpoint output: IC50 of CC1(C)C[C@@H](C(=O)Nc2cnc(OC(F)F)c(Cl)c2)c2cnn3cc(Cl)nc3c21 (single isomer, unassigned) . Value?
### Response 100 to 1000 nM

### Prompt Endpoint output: IC50 of CC1(C)CC(C(=O)Nc2cnc(C(=O)NC3CC3)c(C(F)(F)F)c2)c2cnc3cc(Cl)nn3c21 (stereo not shown) . Value?
### Response 100 to 1000 nM

### Prompt Endpoint output: IC50 of CC1(C)CC(C(=O)Nc2cnc(OC(F)F)c(C#N)c2)c2cnc3cc(Cl)nn3c21 (single isomer, unassigned) [Example 79] . Value?
### Response < 10 nM

### Prompt Endpoint output: IC50 of CC1(C)C[C@@H](C(=O)Nc2cnc(-n3nccn3)c(Cl)c2)c2cnn3cc(C(F)F)nc3c21 (single isomer, unassigned) . Value?
### Response 100 to 1000 nM

### Prompt Endpoint output: IC50 of CC1(C)CC(C(=O)Nc2cnc(-n3nccn3)c(C(F)(F)F)c2)c2cnc3cc(F)nn3c21 (single isomer, unassigned) . Value?
### Response < 10 nM
